# System: HEK-293T
# Assay Text: Multiplex assay against HEK293T
# Assay type: toxicity, cell-based
# Conditions: human, 24 h, 10 µM, compound concentration 10 uM, replicate 1
Each entry below carries its recorded Population Mitochondria Different-Phenotype (%).
Your answer should be a plain number; it is taken to be in %.

Sample answers from the record:
[
  {
    "Molecule": "CCOc1cc(N2CCC(O)CC2)ccc1Nc1ncc2c(n1)N(C1CCCC1)CCC(=O)N2C",
    "Unit Tag": "%",
    "Test Value": 5
  },
  {
    "Molecule": "CN(C)CCOc1ccc(-c2nc(-c3ccncc3)c(-c3ccc4c(c3)CC/C4=N\\O)[nH]2)cc1 [SB590885]",
    "Unit Tag": "%",
    "Test Value": 5
  }
]

Input line: Give its Population Mitochondria Different-Phenotype (%) value. Item: Cc1cc2c(cc1N1C(=O)c3cccc4c(CCCO)ccc(c34)C1=O)n(C)c(=O)n2C
Output line: 87

Input line: May I ask what Population Mitochondria Different-Phenotype (%) has been recorded for COc1cc2c(NC3CCN(C(C)C)CC3)nc(N3CCC(F)(F)CC3)nc2cc1OCCCN1CCCC1 ?
Output line: 100

###

# System: Fibroblast
# Assay Text: Multiplex assay against human fibroblast
# Type: toxicity, cell-based
# Conditions: 24 h, 1 µM, compound concentration 1 uM, replicate 1
Label label 0 if Population Mitotic Cells (%) falls below 50%; label label 1 in every other case.

Some solved entries appear below for comparison.
[
  {
    "Compound": "CNc1oc(-c2cccc3ccccc23)nc1C#N",
    "Assigned Class": "label 1"
  },
  {
    "Compound": "CCn1c(-c2nonc2N)nc2cnc(Oc3cccc(NC(=O)c4ccc(OCCN5CCOCC5)cc4)c3)cc21 [GSK-269962A]",
    "Assigned Class": "label 1"
  },
  {
    "Compound": "O=C(O)c1ccc2cc(-c3ccc(O)c(C45CC6CC(CC(C6)C4)C5)c3)ccc2c1",
    "Assigned Class": "label 0"
  },
  {
    "Compound": "Cl.Cl.NC1(c2ccc(-c3nc4ccn5c(=O)[nH]nc5c4cc3-c3ccccc3)cc2)CCC1",
    "Assigned Class": "label 1"
  },
  {
    "Compound": "COc1cc2c(Nc3ccc(NC(=O)c4ccccc4)cc3)ncnc2cc1OCCCN1CCOCC1",
    "Assigned Class": "label 0"
  }
]

Input line: Is Population Mitotic Cells (%) at least 50%? Consider CCCn1c(=O)c2[nH]c(C34CC5CC(CC3C5)C4)nc2n(CCC)c1=O
Output line: label 1

Input line: Test whether the compound CCC(=O)O[C@]1(C(=O)SCF)[C@H](C)C[C@H]2[C@@H]3C[C@H](F)C4=CC(=O)C=C[C@]4(C)[C@@]3(F)[C@@H](O)C[C@@]21C [FLUTICASONE PROPIONATE] records Population Mitotic Cells (%) of 50% or higher.
Output line: label 0

Input line: Does the compound CCOc1cc(N2CCC(O)CC2)ccc1Nc1ncc2c(n1)N(C1CCCC1)CCC(=O)N2C have recorded Population Mitotic Cells (%) that is 50% or more?
Output line: label 0

Input line: Quick check, Population Mitotic Cells (%) >= 50%? Nc1ccc(C(=O)Nc2cccc(-c3nc(N4CCOCC4)c4oc5ncccc5c4n3)c2)cn1
Output line: label 1

Input line: Population Mitotic Cells (%) >= 50% for CN(C)CCOc1ccc(-c2nc(-c3ccncc3)c(-c3ccc4c(c3)CC/C4=N\O)[nH]2)cc1 ?
Output line: label 0

Input line: For this compound, is measured Population Mitotic Cells (%) 50% or higher? CNC(=O)c1nn(C)c2c1C(C)(C)Cc1cnc(Nc3ccc(N4CCN(C)CC4)cc3)nc1-2
Output line: label 0

Input line: Please tell me: is the compound CC(C)Oc1ccc(C(=O)N[C@H](CNC(=O)CN(C)C)Cc2ccc(-c3cn4cccc([C@H](C)O)c4n3)cc2)cc1Cl [GSK-923295A] at or over 50% in terms of Population Mitotic Cells (%)?
Output line: label 0

###

# Tested on: Fibroblast
# Assay Text: Multiplex assay against human fibroblast
# Type: toxicity, cell-based
# Conditions: 12 h, 10 µM, compound concentration 10 uM, replicate 2
Attribute: Population Fragmented Nuclei (%)

# example entries with known answers
[
  {
    "Compound": "Cl.Cl.Nc1ncnc2c1c(-c1cccc(OCc3ccccc3)c1)cn2[C@H]1C[C@@H](CN2CCC2)C1",
    "Population Fragmented Nuclei (%)": "22%"
  },
  {
    "Compound": "CC(=O)O[C@H]1C(=O)[C@@]2(C)[C@H]([C@H](OC(=O)c3ccccc3)[C@]3(O)C[C@H](OC(=O)[C@H](O)[C@@H](NC(=O)c4ccccc4)c4ccccc4)C(C)=C1C3(C)C)[C@]1(OC(C)=O)CO[C@@H]1C[C@@H]2O [PACLITAXEL]",
    "Population Fragmented Nuclei (%)": "58% [middle of 4 runs]"
  },
  {
    "Compound": "Nc1nc2c(c(N3CCNCC3)n1)CCC1=C2[C@@H]2CCCC[C@@H]2O1",
    "Population Fragmented Nuclei (%)": "9%"
  },
  {
    "Compound": "O=C(O)c1ccc2cc(-c3ccc(O)c(C45CC6CC(CC(C6)C4)C5)c3)ccc2c1 [O-DEMETHYLATED ADAPALENE]",
    "Population Fragmented Nuclei (%)": "11%"
  },
  {
    "Compound": "CCc1cc2c(cc1CC)CC(NC[C@H](O)c1ccc(O)c3[nH]c(=O)ccc13)C2 [INDACATEROL]",
    "Population Fragmented Nuclei (%)": "15%"
  },
  {
    "Compound": "CNC(=O)c1cc(Oc2ccc(NC(=O)Nc3cc(C(C)(C)C)nn3-c3ccc4ncccc4c3)c(F)c2)ccn1 [REBASTINIB]",
    "Population Fragmented Nuclei (%)": "54%"
  }
]

Next compound, please.
Input line: Please give the measured Population Fragmented Nuclei (%) for this compound: CC(=O)c1cc(-c2cc(C(=O)NC3CC3)ccc2C)c2ncccn12
Output line: 11%

###

# Test system: Fibroblast
# Assay Text: Multiplex assay against human fibroblast
# Assay type: toxicity, cell-based
# Conditions: 12 h, 1 µM, compound concentration 1 uM, replicate 1
Quick reference for Population Healthy Nuclei (%) among some compounds
Number only, in %; omit the unit.

[
  {
    "Compound": "Cl.Cl.Nc1ncnc2c1c(-c1cccc(OCc3ccccc3)c1)cn2[C@H]1C[C@@H](CN2CCC2)C1",
    "Test Value": 48
  }
]

Input line: Look at this compound and give its reported Population Healthy Nuclei (%). CCC(=O)O[C@]1(C(=O)SCF)[C@H](C)C[C@H]2[C@@H]3C[C@H](F)C4=CC(=O)C=C[C@]4(C)[C@@]3(F)[C@@H](O)C[C@@]21C [FLUTICASONE PROPIONATE]
Output line: 45

Input line: Form field: reported Population Healthy Nuclei (%) of COc1cc2c(NC3CCN(C(C)C)CC3)nc(N3CCC(F)(F)CC3)nc2cc1OCCCN1CCCC1
Output line: 48

Input line: Fill in: Population Healthy Nuclei (%) of N#Cc1cnc(Nc2cc(NC[C@H]3CNCCO3)c(C(F)(F)F)cn2)cn1 is ___
Output line: 59

Input line: Would you mind telling me what Population Healthy Nuclei (%) value was observed for CC(=O)c1cc(-c2cc(C(=O)NC3CC3)ccc2C)c2ncccn12 ?
Output line: 35

###

# Tested on: U2OS
# Assay Text: Incucyte cell viability with U2OS; also: filed as whole numbers so only -1 and 0 and 1 occur
# Format: toxicity, cell-based
# Conditions: human, 12 h, 10 µM, compound concentration 10 uM, replicate number 1, timepoint 12 hours
Overview of recorded Growth Rate for various compounds
Number, no unit, nothing else.

Input line: Need Growth Rate of O=C(Nc1cccc2c(=O)cc(-c3nnn[nH]3)oc12)c1ccc(OCCCCc2ccccc2)cc1 , thanks.
Output line: 0

Input line: Sample COc1cc2c(NC3CCN(C(C)C)CC3)nc(N3CCC(F)(F)CC3)nc2cc1OCCCN1CCCC1 — what was its Growth Rate?
Output line: 1

###

# Tested on: U2OS
# Assay Text: Multiplex assay against U2OS
# Format: toxicity, cell-based
# Conditions: human, 24 h, 10 µM, compound concentration 10 uM, replicate 2
Readout Name: Total Cell Count
// no unit, no text: just the number

[
  {
    "Compound": "CNc1oc(-c2cccc3ccccc23)nc1C#N",
    "Readout Name": "Total Cell Count",
    "Test Value": 116
  },
  {
    "Compound": "CC(C)(C)c1cnc(CSc2cnc(NC(=O)C3CCNCC3)s2)o1 [BMS-387032]",
    "Readout Name": "Total Cell Count",
    "Test Value": 118
  }
]

Input line: Which Total Cell Count is listed for COc1cc2c(Nc3ccc(NC(=O)c4ccccc4)cc3)ncnc2cc1OCCCN1CCOCC1 ?
Output line: 115

Input line: # Total Cell Count lookup, item c1ccc2oc(-c3csc(C4CCN(Cc5nc6ncccc6[nH]5)CC4)n3)cc2c1
Output line: 137
